The values you see were collected from ChEMBL document CHEMBL1799910.

Test: Partition coefficient, log D of the compound at pH 7.4 by HPLC analysis
Details: octanol/water
logD by entry:
quantity_name: logD

| mol_smiles | quantity_name | numeric_result |
| --- | --- | --- |
| COc1ccc2c(=O)c3c([nH]c2c1)CCCCCC3 | logD | 2.4 |
| COc1ccc2[nH]c3c(c(=O)c2c1)CCC(C)(C)C3 | logD | 2.3 |
| COc1ccc2c(=O)c3c([nH]c2c1)CCCC3 | logD | 1.9 |

###

Test: Permeability of the compound by PAMPA method at pH 7.4
Type: ADME
Details: read-out: permeability
Papp: recorded values

| molecule | unit_abbrev | reported_relation | Papp |
| --- | --- | --- | --- |
| O=c1c2c([nH]c3ccc(-c4ccc(C(F)(F)F)cc4)cc13)CCSC2 | ×10⁻⁶ cm/s | < | 1 |
| COc1cc2[nH]c3c(c(=O)c2cc1Cl)CCCC3 | ×10⁻⁶ cm/s | = | 85 |
| O=c1c2c([nH]c3ccc(-c4ccc(OCc5ccccc5)cc4)cc13)CCSC2 | ×10⁻⁶ cm/s | < | 1 |
| Cc1cc(Oc2ccc(OC(F)(F)F)cc2)ccc1-c1ccc2[nH]c3c(c(=O)c2c1)CSCC3 | ×10⁻⁶ cm/s | < | 1 |
| O=c1c2c([nH]c3cc(C(F)(F)F)ccc13)CCC2 | ×10⁻⁶ cm/s | = | 60 |
| CN(C)c1ccc(-c2ccc3c(=O)c4c([nH]c3c2)CCCC4)cc1 | ×10⁻⁶ cm/s | = | 199 |
| Cc1ccc2[nH]c3c(c(=O)c2c1)CC(C)(C)CC3 | ×10⁻⁶ cm/s | = | 84 |
| CC1(C)CCc2[nH]c3ccccc3c(=O)c2C1 | ×10⁻⁶ cm/s | = | 43 |
| O=c1c2c([nH]c3cccc(Cl)c13)CCCC2 | ×10⁻⁶ cm/s | = | 47 |
| O=c1c2c([nH]c3cc(F)cc(F)c13)CCCC2 | ×10⁻⁶ cm/s | = | 13 |
| O=c1c2c([nH]c3cc(Br)ccc13)CCSC2 | ×10⁻⁶ cm/s | = | 6.3 |
| CC1(C)CCc2[nH]c3c(Cl)cccc3c(=O)c2C1 | ×10⁻⁶ cm/s | = | 427 |
| COc1ccc2[nH]c3c(c(=O)c2c1)CC(C)(C)CC3 | ×10⁻⁶ cm/s | = | 73 |
| O=C1CC(c2ccc(Cl)cc2Cl)Cc2nc3ccc(Cl)cc3c(O)c21 (stereo unspecified) | ×10⁻⁶ cm/s | = | 20 |
| O=c1c2c([nH]c3ccc(Cl)cc13)CCCC2 | ×10⁻⁶ cm/s | = | 57 |
| COc1cc(OC)c2c(=O)c3c([nH]c2c1)CCCC3 | ×10⁻⁶ cm/s | = | 13 |
| COc1cc2[nH]c3c(c(=O)c2cc1C)CCCC3 | ×10⁻⁶ cm/s | = | 50 |
| O=c1c2c([nH]c3ccc(I)cc13)CCCC2 | ×10⁻⁶ cm/s | = | 96 |
| COc1cc2c(=O)c3c([nH]c2cc1Cl)CCCC3 | ×10⁻⁶ cm/s | = | 24 |
| O=c1c2c([nH]c3c(Cl)cccc13)CCCC2 | ×10⁻⁶ cm/s | = | 107 |
| COc1ccc2c(=O)c3c([nH]c2c1)CCC(C)(C)C3 | ×10⁻⁶ cm/s | = | 88 |
| Cc1cccc2[nH]c3c(c(=O)c12)CC(C)(C)CC3 | ×10⁻⁶ cm/s | = | 269 |
| O=c1c2c([nH]c3ccc(-c4ccc(COc5ccc(OC(F)(F)F)cc5)cc4)cc13)CCSC2 | ×10⁻⁶ cm/s | = | 3 |
| CC(C)c1ccc2[nH]c3c(c(=O)c2c1)CCCC3 | ×10⁻⁶ cm/s | = | 100 |
| Cc1ccc2c(=O)c3c([nH]c2c1)CC(C)(C)CC3 | ×10⁻⁶ cm/s | = | 53 |
| CC1(C)CCc2c([nH]c3cccc(Cl)c3c2=O)C1 | ×10⁻⁶ cm/s | = | 103 |
| O=c1c2c([nH]c3cc(F)c(F)cc13)CCCC2 | ×10⁻⁶ cm/s | = | 28 |
| O=c1c2c([nH]c3cc(F)ccc13)CCCC2 | ×10⁻⁶ cm/s | = | 21 |
| CC1(C)CCc2c([nH]c3ccccc3c2=O)C1 | ×10⁻⁶ cm/s | = | 43 |
| COc1ccc2c(=O)c3c([nH]c2c1)CCCC3 | ×10⁻⁶ cm/s | = | 25 |
| Cc1cc(Cl)ccc1-c1ccc2[nH]c3c(c(=O)c2c1)CSCC3 | ×10⁻⁶ cm/s | < | 1 |
| COc1cccc2[nH]c3c(c(=O)c12)CCC(C)(C)C3 | ×10⁻⁶ cm/s | = | 43 |
| Cc1ccc2[nH]c3c(c(=O)c2c1)CCC(C)(C)C3 | ×10⁻⁶ cm/s | = | 78 |
| O=c1c2c([nH]c3ccc(Cl)cc13)CCC(F)(F)C2 | ×10⁻⁶ cm/s | = | 62 |
| COc1cc2[nH]c3c(c(=O)c2cc1Cl)CSCC3 | ×10⁻⁶ cm/s | = | 101 |
| O=c1c2c([nH]c3c(Cl)c(Cl)ccc13)CCCC2 | ×10⁻⁶ cm/s | = | 348 |
